# target.under.test: T1, Apelin Receptor (APJ) stably overexpressed in CHO-K1 AGTRL1 Gi cells (human, UniProt P35414 1-380)
# T1 sequence (looked up): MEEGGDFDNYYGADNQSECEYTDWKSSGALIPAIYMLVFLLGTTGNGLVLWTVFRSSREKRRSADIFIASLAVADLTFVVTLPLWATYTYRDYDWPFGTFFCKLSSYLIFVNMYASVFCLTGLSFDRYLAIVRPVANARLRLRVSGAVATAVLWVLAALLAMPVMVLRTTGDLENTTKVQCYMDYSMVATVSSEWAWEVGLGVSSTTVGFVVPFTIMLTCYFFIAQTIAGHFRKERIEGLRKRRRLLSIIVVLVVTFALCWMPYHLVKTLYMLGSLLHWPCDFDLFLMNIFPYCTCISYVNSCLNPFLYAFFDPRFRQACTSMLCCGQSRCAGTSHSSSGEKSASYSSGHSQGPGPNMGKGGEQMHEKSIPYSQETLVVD
# protocol.description: cell-based or functional assay
Non-standard residues stand in square brackets, D forms with d. Primed or numbered codes have the meaning given here. No end group written: not given here. PEG12″ = PEG12 group on the N-terminal Lys
assay.endpoint: IC50, inhibition of forskolin-stimulated cAMP accumulation (nM)

[[record]]
binder = "MRRMMGMVFQCLCGL [SEQ ID NO 7]"
value_observed = 1240

[[record]]
binder = "RRMMGMVFQSLCG[dA] [SEQ ID NO 15]"
value_observed = 4490

[[record]]
binder = "KRRLLGLVFQSLCGA ((PEG12) on the N-terminal K (position 1); (dA) D-alanine at position 15) [SEQ ID NO 37]"
value_observed = 2500

[[record]]
binder = "KRRMMGMVFQSLCGA ((PEG12) on the N-terminal K (position 1); (dA) D-alanine at position 15) [SEQ ID NO 36]"
value_observed = 1600

[[record]]
binder = "[PEG12″]KRRIIGIVFQCLCG[dA] (cysteine pairing not given here) [SEQ ID NO 42]"
value_observed = 4380

[[record]]
binder = "RRIIGIVFQSLCG[dA] [SEQ ID NO 43]"
value_observed = 2070

